# assay.name: Cytotoxicity in mock-infected MT-4 cells (MTT assay)
# Assay type: cell-based
# protocol.conditions: human, mock-infected (uninfected) MT-4 cells, uninfected (mock-infected) MT-4 cells, viability reduced by 50%
measured.property: CC50 at 5 days

molecule | reported
Cc1[nH]c2ccccc2c1CC(=O)NC(Cc1ccccc1)C(=O)N(C)c1ccccc1 (stereo not shown) [PF74, reference compound] | > 294 µM

----------
# System: HIV-2 ROD
# assay.name: Anti-HIV-2 activity in MT-4 cells (MTT assay)
# Type: cell-based
# protocol.conditions: Human immunodeficiency virus 2, MT4, 120 h; MT-4 cells, 50% protection against HIV-induced cytopathic effect, MTT, five days after infection; read-out: EC50 HIV-2 ROD
pEC50: −log10 of the molar value.
Readings of pEC50 for the listed compounds
measured.property: pEC50

compound.structure | measured.property | relation.sign | reported
COC(=O)c1ccc(C(=O)Nc2ccn(CC(=O)N[C@@H](Cc3ccccc3)C(=O)N(C)c3ccc(OC)cc3)c(=O)c2)cc1 | pEC50 | = | 4.82
COc1ccc(N(C)C(=O)[C@H](Cc2ccccc2)NC(=O)Cn2ccc(NC(=O)c3ccc(N)cc3)cc2=O)cc1 | pEC50 | = | 4.77
COc1ccc(N(C)C(=O)[C@H](Cc2ccccc2)NC(=O)Cn2ccc(NC(=O)c3ccc([N+](=O)[O-])cc3)cc2=O)cc1 | pEC50 | < | 4.50
COc1ccc(N(C)C(=O)[C@H](Cc2ccccc2)NC(=O)Cn2ccc(NC(=O)c3ccc(F)cc3)cc2=O)cc1 | pEC50 | = | 4.79

----------
# System: HIV-1 IIIB
# assay.name: Anti-HIV-1 activity in MT-4 cells (MTT assay)
# Type: cell-based
# protocol.conditions: Human immunodeficiency virus 1, IIIB, MT4, 120 h; MT-4 cells, 50% protection against HIV-induced cytopathic effect, MTT, five days after infection; read-out: EC50 HIV-1 IIIB
# Method: The antiviral activities and cytotoxicities of the target compounds were tested using MT-4 cells infected by HIV-1 IIIB or HIV-2 ROD. […] PF74 was utilized as the control drug in this assay.
pEC50: −log10 of the molar value.

compound | relation.sign | pEC50
COc1ccc(N(C)C(=O)[C@H](Cc2ccccc2)NC(=O)Cn2ccc(N)cc2=O)cc1 [TC-2] | = | 4.54
COc1ccc(C(=O)Nc2ccn(CC(=O)N[C@@H](Cc3ccccc3)C(=O)N(C)c3ccc(OC)cc3)c(=O)c2)cc1 [TD-1h] | = | 4.53
COc1ccc(N(C)C(=O)[C@H](Cc2ccccc2)NC(=O)Cn2ccc(NC(=O)c3ccc(Cl)cc3)cc2=O)cc1 [TD-1e] | < | 4.59
COc1ccc(N(C)C(=O)[C@H](Cc2ccccc2)NC(=O)Cn2ccc(NC(=O)c3ccc(Br)cc3)cc2=O)cc1 [TD-1f] | < | 4.63
COc1ccc(N(C)C(=O)[C@H](Cc2ccccc2)NC(=O)Cn2ccc(NC(=O)c3ccccc3F)cc2=O)cc1 [TD-1d] | = | 4.75
COc1ccc(N(C)C(=O)[C@H](Cc2ccccc2)NC(=O)Cn2ccc(NC(=O)c3ccccc3)cc2=O)cc1 [TD-1a] | = | 4.77
COc1ccc(N(C)C(=O)[C@H](Cc2ccccc2)NC(=O)Cn2ccc(NC(=O)c3cccc(F)c3)cc2=O)cc1 [TD-1c] | = | 4.72
COc1ccc(N(C)C(=O)[C@H](Cc2ccccc2)NC(=O)Cn2ccc(NC(=O)c3ccc4ccccc4c3)cc2=O)cc1 [TD-1k] | < | 4.56
COc1ccc(N(C)C(=O)[C@H](Cc2cc(F)cc(F)c2)NC(=O)Cn2ccc(N)cc2=O)cc1 [FTC-2] | = | 5.27
COc1ccc(N(C)C(=O)[C@H](Cc2ccccc2)NC(=O)Cn2ccc(NC(=O)c3ccc(F)cc3)cc2=O)cc1 [TD-1b] | < | 4.46
COc1ccc(N(C)C(=O)[C@H](Cc2ccccc2)NC(=O)Cn2ccc(NC(=O)c3ccc(C#N)cc3)cc2=O)cc1 [TD-1j] | = | 4.78
